biological target: AD brain tissue (Homo sapiens, UniProt P05067); assay: Competitive binding in AD brain tissue vs [3H]PiB; details: AD brain tissue, radioligand [3H]PiB
Sequence (P05067 whole entry): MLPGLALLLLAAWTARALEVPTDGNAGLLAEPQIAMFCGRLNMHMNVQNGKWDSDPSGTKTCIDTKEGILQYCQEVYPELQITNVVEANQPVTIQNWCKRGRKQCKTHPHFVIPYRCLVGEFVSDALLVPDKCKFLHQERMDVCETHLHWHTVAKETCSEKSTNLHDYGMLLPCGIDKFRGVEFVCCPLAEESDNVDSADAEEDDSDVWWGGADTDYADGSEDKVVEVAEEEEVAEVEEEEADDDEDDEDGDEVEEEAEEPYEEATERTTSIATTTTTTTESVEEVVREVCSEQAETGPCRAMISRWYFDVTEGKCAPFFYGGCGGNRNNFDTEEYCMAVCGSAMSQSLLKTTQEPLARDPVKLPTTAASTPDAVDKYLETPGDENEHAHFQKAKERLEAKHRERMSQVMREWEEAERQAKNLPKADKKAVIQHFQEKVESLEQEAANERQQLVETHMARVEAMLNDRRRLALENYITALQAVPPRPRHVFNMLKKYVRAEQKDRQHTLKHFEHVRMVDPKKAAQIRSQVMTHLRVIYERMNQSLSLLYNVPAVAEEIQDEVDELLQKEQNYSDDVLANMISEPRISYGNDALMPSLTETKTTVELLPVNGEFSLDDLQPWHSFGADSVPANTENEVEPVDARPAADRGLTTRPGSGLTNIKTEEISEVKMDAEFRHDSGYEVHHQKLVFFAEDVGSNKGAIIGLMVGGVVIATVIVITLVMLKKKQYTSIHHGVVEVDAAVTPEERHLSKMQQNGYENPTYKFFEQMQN
MEASURE NAME: Ki (nM)

- COc1ccc2nc(Nc3cc(-c4ccccc4)n[nH]3)ccc2c1: 7.1

(I) COc1ccc(Nc2ccc3cc(OCCF)ccc3n2)cn1
(II) COc1ccc(Nc2ccc3cc(OC(F)F)ccc3n2)cn1
// compare: I vs II , metric Ki, want the smaller Refer to your chosen item by its label in the answer. I
(I: 10.8 nM, II: 99 nM)

====

biological target: AD brain tissue (Homo sapiens); test: Competitive binding in AD brain tissue vs [3H]PiB; conditions: maximal inhibition of [3H]PiB binding in AD brain tissue
MEASURE NAME: max % Inh_PiB (%)

As a guide, the following entries are already answered.
• COc1ccc2nc(Nc3ccc(N4CCOCC4)nc3)ccc2c1 = 100
• COc1ccc2nc(Nc3nc4ccc(N(C)C)cc4s3)ccc2c1 = 80
• COc1ccc2cc(Nc3ccc(OC)nc3)ncc2c1 = 100
• COc1ccc2nc(Nc3ccc(-n4cccn4)nc3)ccc2c1 = 70
• COc1ccc(Nc2ccc3cc(OCCF)ccc3n2)cn1 = 100
• COc1ccc2nc(Nc3ccnc(OC)c3)ccc2c1.Cl = 100
• COc1ccc(Nc2ccc3cc(OC(F)F)ccc3n2)cn1 = 70

(P) COc1ccc2nc(Nc3ccc(C=O)o3)ccc2c1
(Q) COc1ccc2c(c1)CCC(Nc1cc(C)n[nH]1)=N2
(R) COc1ccc2nc(/C=C/c3nc4ccc(OC)cc4s3)ccc2c1
Arrange the 3 molecules by rising max % Inh_PiB, starting with the smallest. Answer by listing the labels in the requested order. R, P, Q
